Tested System: Human GLP-1 receptor (Homo sapiens)
Construct: The full-length cDNA was cloned in pcDNA3.1(+); expressed in transfected cells
Sequence (P43220 24-463): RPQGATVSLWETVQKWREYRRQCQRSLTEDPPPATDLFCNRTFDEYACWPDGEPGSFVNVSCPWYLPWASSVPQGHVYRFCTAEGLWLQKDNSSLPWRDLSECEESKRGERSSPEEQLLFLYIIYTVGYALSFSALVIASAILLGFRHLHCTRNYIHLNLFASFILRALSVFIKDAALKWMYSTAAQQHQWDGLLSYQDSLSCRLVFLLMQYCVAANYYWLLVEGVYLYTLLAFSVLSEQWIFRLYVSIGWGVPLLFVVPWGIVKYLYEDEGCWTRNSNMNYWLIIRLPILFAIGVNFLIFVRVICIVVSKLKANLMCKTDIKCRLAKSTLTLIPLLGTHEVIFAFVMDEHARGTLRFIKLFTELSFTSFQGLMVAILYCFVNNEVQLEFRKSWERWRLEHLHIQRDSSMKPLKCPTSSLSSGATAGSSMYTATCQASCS
Experimental Details: In vitro Human GLP-1 R agonist activity (cyclic AMP determination) in CHO/human GLP1R cells
Format: cell-based
Stated Conditions: 100 nM test compound
Measurement Name: Human GLP-1 R activity (cAMP release), % activity with respect to control (%)
Numbers only, in %.

Compound: CCc1cc(OC)ccc1-c1ccc(CC(CNC(CCCc2ccccc2)C(N)=O)NC[C@H](CC(=O)O)NC(=O)[C@H](CO)NC(=O)[C@@H](NC(=O)C(C)(Cc2ccccc2F)NC(=O)[C@@H](NC(=O)CNC(=O)[C@H](CCC(N)=O)NC(=O)C(C)(C)NC(=O)[C@H](Cc2c[nH]cn2)NC(=O)OC)[C@H](C)O)[C@H](C)O)cc1 (single isomer, unassigned)
Assay Value: 92

Continue with the next compound.
Task item: // lookup Human GLP-1 R activity (cAMP release), % activity with respect to control for CCc1cc(OC)ccc1-c1ccc(CC(CNC(CCCc2ccccc2F)C(N)=O)NC[C@H](CC(=O)O)NC(=O)[C@H](CO)NC(=O)[C@@H](NC(=O)C(C)(Cc2ccccc2F)NC(=O)[C@@H](NC(=O)CNC(=O)[C@H](CCC(N)=O)NC(=O)C(C)(C)NC(=O)[C@@H](N)Cc2c[nH]cn2)[C@H](C)O)[C@H](C)O)cc1 (single isomer, unassigned)
Reply: 99

###

Experimental Details: Stability in human plasma
Assay type: in vitro ADME
Stated Conditions: 2 μM peptidomimetic, pooled human plasma, 37° C.
Protocol: Reactions were terminated by the addition of TFA/H2O (15 mL, 10% (v/v)). […] The column was equilibrated with TFA/H20, at a flow rate of 1 mL/min.
Measurement Name: half-life (t1/2) when incubated with human plasma

Molecule: CCc1cc(OC)ccc1-c1ccc(CC(NC(=O)[C@H](CC(=O)O)NC(=O)[C@H](CO)NC(=O)[C@@H](NC(=O)C(C)(Cc2ccccc2F)NC(=O)[C@@H](NC(=O)CNC(=O)C(CCC#N)NC(=O)C(C)(C)NC(=O)[C@H](Cc2c[nH]cn2)NC(=O)OC)[C@@H](C)O)[C@@H](C)O)C(=O)NC(CCCc2ccccc2F)C(N)=O)cc1 (single isomer, unassigned)
Assay Value: (9) h

Molecule: CCc1cc(OC)ccc1-c1ccc(CC(NC(=O)[C@H](CC(=O)O)NC(=O)[C@H](CO)NC(=O)[C@@H](NC(=O)[C@H](Cc2ccccc2)NC(=O)[C@@H](NC(=O)CNC(=O)[C@H](CCC(N)=O)NC(=O)[C@H](CO)NC(=O)[C@@H](N)Cc2c[nH]cn2)[C@@H](C)O)[C@@H](C)O)C(=O)NC(CCCc2ccccc2F)C(N)=O)cc1 (single isomer, unassigned)
Assay Value: (9) h

###

Experimental Details: Stability in liver microsomes
Assay type: in vitro ADME
Stated Conditions: 2 μM peptidomimetic, human liver microsomes, 37° C., 24 h
Measurement Name: % degradation of peptidomimetics in 24 h when incubated with liver microsomes (%)
Give bare numbers, in %.

Compound: CCc1cc(OC)ccc1-c1ccc(CC(CNC(CCCc2ccccc2F)C(N)=O)NC[C@H](CC(=O)O)NC(=O)[C@H](CO)NC(=O)[C@@H](NC(=O)C(C)(Cc2ccccc2F)NC(=O)[C@@H](NC(=O)CNC(=O)[C@H](CCC(N)=O)NC(=O)C(C)(C)NC(=O)[C@H](Cc2c[nH]cn2)NC(=O)OC)[C@H](C)O)[C@H](C)O)cc1 (single isomer, unassigned) [compound 200]
Uom: %
Assay Value: 81

Task item: Need % degradation of peptidomimetics in 24 h when incubated with liver microsomes, item CCc1cc(OC)ccc1-c1ccc(CC(NC(=O)[C@H](CC(=O)O)NC(=O)[C@H](CO)NC(=O)[C@@H](NC(=O)[C@H](Cc2ccccc2)NC(=O)[C@@H](NC(=O)CNC(=O)[C@H](CCC(N)=O)NC(=O)C(C)(C)NC(=O)[C@@H](N)Cc2c[nH]cn2)[C@@H](C)O)[C@@H](C)O)C(=O)NC(CCCc2cccc(Cl)c2)C(N)=O)cc1 (single isomer, unassigned) [compound 19]
Reply: 77
